Recorded measurements of IC50, one per entry
# SYSTEM_TESTED: Non-receptor tyrosine-protein kinase TYK2 (Homo sapiens)
# Sequence (P29597 whole entry): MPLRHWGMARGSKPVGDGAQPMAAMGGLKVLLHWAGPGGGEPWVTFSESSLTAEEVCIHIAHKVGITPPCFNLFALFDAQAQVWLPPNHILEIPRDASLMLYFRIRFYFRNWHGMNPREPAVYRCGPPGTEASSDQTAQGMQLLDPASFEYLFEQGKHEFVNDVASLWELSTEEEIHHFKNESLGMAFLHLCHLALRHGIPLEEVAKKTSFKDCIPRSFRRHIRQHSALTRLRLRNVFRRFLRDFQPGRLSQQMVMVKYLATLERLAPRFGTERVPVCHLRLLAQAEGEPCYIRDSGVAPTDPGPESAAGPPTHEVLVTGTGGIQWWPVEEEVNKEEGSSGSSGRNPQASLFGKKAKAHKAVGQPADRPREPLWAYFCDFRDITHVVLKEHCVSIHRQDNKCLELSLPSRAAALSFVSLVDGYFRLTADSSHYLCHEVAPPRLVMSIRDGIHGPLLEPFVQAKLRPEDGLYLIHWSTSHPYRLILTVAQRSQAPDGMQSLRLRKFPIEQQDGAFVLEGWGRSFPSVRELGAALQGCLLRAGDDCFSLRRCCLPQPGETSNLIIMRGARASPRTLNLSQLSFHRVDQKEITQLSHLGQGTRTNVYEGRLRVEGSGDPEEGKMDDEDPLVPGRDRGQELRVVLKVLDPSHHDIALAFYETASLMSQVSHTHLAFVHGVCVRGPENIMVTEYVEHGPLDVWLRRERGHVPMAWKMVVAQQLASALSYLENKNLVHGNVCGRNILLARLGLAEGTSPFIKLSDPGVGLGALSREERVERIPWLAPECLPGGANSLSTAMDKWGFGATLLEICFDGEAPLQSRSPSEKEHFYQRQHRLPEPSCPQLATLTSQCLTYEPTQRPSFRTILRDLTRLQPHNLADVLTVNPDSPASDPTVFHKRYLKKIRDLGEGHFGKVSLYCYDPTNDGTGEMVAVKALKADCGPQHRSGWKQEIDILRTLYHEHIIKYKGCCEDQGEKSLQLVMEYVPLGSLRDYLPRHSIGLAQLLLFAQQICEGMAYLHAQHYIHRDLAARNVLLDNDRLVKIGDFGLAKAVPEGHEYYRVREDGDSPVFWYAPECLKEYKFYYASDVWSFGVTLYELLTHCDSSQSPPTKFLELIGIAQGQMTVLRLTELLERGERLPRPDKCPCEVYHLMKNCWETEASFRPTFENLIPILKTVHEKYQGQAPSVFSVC
# PROTOCOL_DETAILS: biochemical
Your answer is read as nM, so omit the unit and give the number.

Example entries begin here.
Cn1ccc(-c2cn3nccc3c(-c3cnn([C@]4(CC#N)C[C@@H](C#N)C4)c3)n2)n1    67
Cn1cc(-c2cc(-c3cnn(C4(CC#N)CN(CC(F)(F)F)C4)c3)n3ccnc3c2)cn1    290
N#CC[C@]1(n2cc(-c3nc(-c4cn[nH]c4)cn4nccc34)cn2)C[C@H](C#N)C1    44
N#CC[C@]1(n2cc(-c3nc(-c4cc[nH]n4)cn4nccc34)cn2)C[C@H](C#N)C1    26
CC(=O)N1CC(CC#N)(n2cc(-c3nc(-c4cnn(C)c4)cn4nccc34)cn2)C1    678

Can you look up the measured IC50 of "Cn1cc(-c2cn3nccc3c(-c3cnn(C4(CC#N)CN(CC(F)(F)F)C4)c3)n2)cn1" for me?
10

Can you look up the measured IC50 of "Cn1cc(-c2cn3nccc3c(-c3cnn(C4(CC#N)CN(CCO)C4)c3)n2)cn1" for me?
189

Can you look up the measured IC50 of "CCN1CC(CC#N)(n2cc(-c3nc(-c4cnn(C)c4)cn4nccc34)cn2)C1" for me?
46

Can you look up the measured IC50 of "Cn1cc(-c2cn3nccc3c(-c3cnn(C4(CC#N)CN(CC5CC5)C4)c3)n2)cn1" for me?
40

---

# PROTOCOL_DETAILS: Fraction unbound in human plasma
# Type: ADME, cell-free
OBSERVATION_TYPE: fraction unbound

Example entries begin here.
CO[C@H]1C[C@](CC#N)(n2cc(-c3nc(-c4cnn(C)c4)cn4nccc34)cn2)C1    0.3
N#CC[C@]1(n2cc(-c3nc(-c4cc[nH]n4)cn4nccc34)cn2)C[C@H](C#N)C1    0.32
Cn1ccc(-c2cn3nccc3c(-c3cnn([C@]4(CC#N)C[C@@H](C#N)C4)c3)n2)n1    0.2

Consider now this further compound.
Can you look up the measured fraction unbound of "Cn1cc(-c2cn3nccc3c(-c3cnn([C@]4(CC#N)C[C@H](C#N)C4)c3)n2)cn1" for me?
0.34

---

# PROTOCOL_DETAILS: Clearance in human liver microsomes assessed per mg protein
# Assay type: ADME, Microsome
# SETTINGS: read-out: CLH
Tag: class 1 if measured microsomal CLint is not below 20 µL/min/mg, class 0 if it is.

Previously resolved entries follow.
N#CC[C@]1(n2cc(-c3nc(-c4cn[nH]c4)cn4nccc34)cn2)C[C@@H](C#N)C1    class 1
Cn1cc(-c2cn3nccc3c(-c3cnn([C@]4(CC#N)C[C@@H](CC#N)C4)c3)n2)cn1    class 0

Record "Cn1cc(-c2cn3nccc3c(-c3cnn([C@]4(CC#N)C[C@@H](C#N)C4)c3)n2)cn1" ; criterion: microsomal CLint no lower than 20 µL/min/mg. Met?
class 0

Record "Cn1cc(-c2cn3nccc3c(-c3cnn([C@]4(CC#N)C[C@H](CC#N)C4)c3)n2)cn1" ; criterion: microsomal CLint no lower than 20 µL/min/mg. Met?
class 0

Record "CO[C@H]1C[C@@](CC#N)(n2cc(-c3nc(-c4cnn(C)c4)cn4nccc34)cn2)C1" ; criterion: microsomal CLint no lower than 20 µL/min/mg. Met?
class 1

Record "Cn1cc(-c2cn3nccc3c(-c3cnn(C4(CC#N)CN(CC#N)C4)c3)n2)cn1" ; criterion: microsomal CLint no lower than 20 µL/min/mg. Met?
class 0

Record "Cn1ccc(-c2cn3nccc3c(-c3cnn([C@]4(CC#N)C[C@H](C#N)C4)c3)n2)n1" ; criterion: microsomal CLint no lower than 20 µL/min/mg. Met?
class 1

Record "N#CC[C@]1(n2cc(-c3nc(-c4cc[nH]n4)cn4nccc34)cn2)C[C@H](C#N)C1" ; criterion: microsomal CLint no lower than 20 µL/min/mg. Met?
class 0

---

# PROTOCOL_DETAILS: AUC infinity in Sprague-Dawley rat at 30 mg/kg, po using SDD formulation
# Assay type: ADME, organism-based
# Parameters: time infinity, route oral, dose 30 mg/kg
# SETTINGS: in vivo
OBSERVATION_TYPE: AUC(0-inf) (ng·h/mL)
Your answer is read as ng·h/mL, so omit the unit and give the number.

Can you look up the measured AUC(0-inf) of Cn1cc(-c2cn3nccc3c(-c3cnn([C@]4(CC#N)C[C@@H](C#N)C4)c3)n2)cn1 [ROPSACITINIB] for me?
25900

---

# PROTOCOL_DETAILS: Protein binding in rat plasma
# Format: ADME, cell-free
# SETTINGS: read-out: PPB (converted)
OBSERVATION_TYPE: fraction unbound
Enter a number only.

Can you look up the measured fraction unbound of Cn1cc(-c2cn3nccc3c(-c3cnn([C@]4(CC#N)C[C@@H](C#N)C4)c3)n2)cn1 [ROPSACITINIB] for me?
0.82

---

# PROTOCOL_DETAILS: Cmax in Sprague-Dawley rat at 3 mg/kg, po using SDD formulation
# Type: ADME, organism-based
# Design: route oral, dose 3 mg/kg
# SETTINGS: in vivo
OBSERVATION_TYPE: Cmax (ng/mL)
Your answer is read as ng/mL, so omit the unit and give the number.

Can you look up the measured Cmax of "Cn1cc(-c2cn3nccc3c(-c3cnn([C@]4(CC#N)C[C@@H](C#N)C4)c3)n2)cn1" for me?
369

---

# PROTOCOL_DETAILS: physchem
# SETTINGS: octanol/water phosphate buffer, pH 7.4
# Description: Octanol/water phosphate buffer partition coefficient, log D of compound at pH 7.4 by shake-flask method
Recorded measurements of logD, one per entry
Enter a number only.

Example entries begin here.
CCN1CC(CC#N)(n2cc(-c3nc(-c4cnn(C)c4)cn4nccc34)cn2)C1    2.1
Cn1cc(-c2cc(-c3cnn(C4(CC#N)CN(CC(F)(F)F)C4)c3)n3ncnc3c2)cn1    2.3
Cn1cc(-c2cn3nccc3c(-c3cnn([C@]4(CC#N)C[C@@H](C#N)C4)c3)n2)cn1 [ROPSACITINIB]    1.7

Can you look up the measured logD of "CO[C@H]1C[C@@](CC#N)(n2cc(-c3nc(-c4cnn(C)c4)cn4nccc34)cn2)C1" for me?
2.2

Can you look up the measured logD of "N#CC[C@]1(n2cc(-c3nc(-c4cc[nH]n4)cn4nccc34)cn2)C[C@@H](C#N)C1" for me?
1.7

Can you look up the measured logD of "Cn1cc(-c2cn3nccc3c(-c3cnn(C4(CC#N)CN(CC#N)C4)c3)n2)cn1" for me?
1.5

Can you look up the measured logD of "CO[C@H]1C[C@](CC#N)(n2cc(-c3nc(-c4cnn(C)c4)cn4nccc34)cn2)C1" for me?
2.3

Can you look up the measured logD of "Cn1ccc(-c2cn3nccc3c(-c3cnn([C@]4(CC#N)C[C@@H](C#N)C4)c3)n2)n1" for me?
1.6

Can you look up the measured logD of "N#CC[C@]1(n2cc(-c3nc(-c4cn[nH]c4)cn4nccc34)cn2)C[C@@H](C#N)C1" for me?
1.6

Can you look up the measured logD of "N#CC[C@]1(n2cc(-c3nc(-c4cc[nH]n4)cn4nccc34)cn2)C[C@H](C#N)C1" for me?
1.7

Can you look up the measured logD of "Cn1cc(-c2cn3nccc3c(-c3cnn([C@]4(CC#N)C[C@H](CC#N)C4)c3)n2)cn1" for me?
1.8

Can you look up the measured logD of "Cn1cc(-c2cc(-c3cnn(C4(CC#N)CN(CC(F)(F)F)C4)c3)n3cnnc3c2)cn1" for me?
1.2

Can you look up the measured logD of "N#CC[C@]1(n2cc(-c3nc(-c4cn[nH]c4)cn4nccc34)cn2)C[C@H](C#N)C1" for me?
1.7

Can you look up the measured logD of "CC(=O)N1CC(CC#N)(n2cc(-c3nc(-c4cnn(C)c4)cn4nccc34)cn2)C1" for me?
1.2

Can you look up the measured logD of "Cn1ccc(-c2cn3nccc3c(-c3cnn([C@]4(CC#N)C[C@H](C#N)C4)c3)n2)n1" for me?
1.6

Can you look up the measured logD of "Cn1cc(-c2cn3nccc3c(-c3cnn([C@]4(CC#N)C[C@@H](CC#N)C4)c3)n2)cn1" for me?
1.9

Can you look up the measured logD of "Cn1cc(-c2cn3nccc3c(-c3cnn([C@]4(CC#N)C[C@H](C#N)C4)c3)n2)cn1" for me?
1.8

Can you look up the measured logD of "Cn1cc(-c2cc(-c3cnn(C4(CC#N)CN(CC(F)(F)F)C4)c3)n3ccnc3c2)cn1" for me?
2.1

Can you look up the measured logD of "Cn1cc(-c2cn3nccc3c(-c3cnn(C4(CC#N)CN(CCO)C4)c3)n2)cn1" for me?
1.2

Can you look up the measured logD of "Cn1cc(-c2cn3nccc3c(-c3cnn(C4(CC#N)CN(CC(F)(F)F)C4)c3)n2)cn1" for me?
2.5
